Origin of values: paper PMC13397619

B1: NLV2 TCR alpha chain (CDR3α only) (parent)
chain: AGPMKTSYDKVI

- Variants of: B1
- test-details: T-Switch: Jurkat TCRβ−/− cells expressing a CDR3 saturation-mutagenesis library, stained with two peptide-HLA-A*02:01 tetramers (original and novel peptide) plus anti-CD3, FACS-sorted into four gates, gDNA sequenced
- reported-conditions: with both tetramers (double-negative gate, binds neither): HLA-A*02:01 with … and with …, tetramers 1 µg/mL, 30 min on ice, SP, DP and SW gates expanded about 10 days between rounds ('two to three rounds of selection' in the Methods), gate DN: OPPOSITE: higher = more of the variant in the gate that binds neither peptide = LESS binding (or no expression; inferred). Fold enrichment of the CDR3 variant in one FACS gate of a two-tetram, unresolved parent, parent is a CDR3 fragment, scale: fold enrichment, numbering: sequential-on-construct, sequence starts at 1
Please use rule met whenever enrichment is not below 0.9, and rule not met whenever it is.

Check out these entries, answers already filled in.
mutation-label	label-class
[…] (CDR3 as printed); S7P derived by comparing it with the table's wild-type CDR3 AGPMKTSYDKVI	rule met
[…] (CDR3 as printed); T6Q derived by comparing it with the table's wild-type CDR3 AGPMKTSYDKVI	rule met
[…] (CDR3 as printed); S7K derived by comparing it with the table's wild-type CDR3 AGPMKTSYDKVI	rule met
[…] (CDR3 as printed); K5H derived by comparing it with the table's wild-type CDR3 AGPMKTSYDKVI	rule not met
[…] (CDR3 as printed); V11N derived by comparing it with the table's wild-type CDR3 AGPMKTSYDKVI	rule met
[…] (CDR3 as printed); D9H derived by comparing it with the table's wild-type CDR3 AGPMKTSYDKVI	rule met

Query block: Record […] (CDR3 as printed); A1M derived by comparing it with the table's wild-type CDR3 AGPMKTSYDKVI ; criterion: enrichment no lower than 0.9. Met?
Result block: rule not met

Query block: Record […] (CDR3 as printed); M4S derived by comparing it with the table's wild-type CDR3 AGPMKTSYDKVI ; criterion: enrichment no lower than 0.9. Met?
Result block: rule not met

Query block: Record […] (CDR3 as printed); A1V derived by comparing it with the table's wild-type CDR3 AGPMKTSYDKVI ; criterion: enrichment no lower than 0.9. Met?
Result block: rule not met

Query block: Record […] (CDR3 as printed); Y8G derived by comparing it with the table's wild-type CDR3 AGPMKTSYDKVI ; criterion: enrichment no lower than 0.9. Met?
Result block: rule met

Query block: Record […] (CDR3 as printed); K10T derived by comparing it with the table's wild-type CDR3 AGPMKTSYDKVI ; criterion: enrichment no lower than 0.9. Met?
Result block: rule met

Query block: Record […] (CDR3 as printed); M4D derived by comparing it with the table's wild-type CDR3 AGPMKTSYDKVI ; criterion: enrichment no lower than 0.9. Met?
Result block: rule not met

Query block: Record […] (CDR3 as printed); V11F derived by comparing it with the table's wild-type CDR3 AGPMKTSYDKVI ; criterion: enrichment no lower than 0.9. Met?
Result block: rule met

Query block: Record […] (CDR3 as printed); K5Y derived by comparing it with the table's wild-type CDR3 AGPMKTSYDKVI ; criterion: enrichment no lower than 0.9. Met?
Result block: rule not met

Query block: Record […] (CDR3 as printed); T6I derived by comparing it with the table's wild-type CDR3 AGPMKTSYDKVI ; criterion: enrichment no lower than 0.9. Met?
Result block: rule not met

Query block: Record […] (CDR3 as printed); K10L derived by comparing it with the table's wild-type CDR3 AGPMKTSYDKVI ; criterion: enrichment no lower than 0.9. Met?
Result block: rule met

Query block: Record […] (CDR3 as printed); I12T derived by comparing it with the table's wild-type CDR3 AGPMKTSYDKVI ; criterion: enrichment no lower than 0.9. Met?
Result block: rule met

Query block: Record […] (CDR3 as printed); V11E derived by comparing it with the table's wild-type CDR3 AGPMKTSYDKVI ; criterion: enrichment no lower than 0.9. Met?
Result block: rule met

Query block: Record […] (CDR3 as printed); S7V derived by comparing it with the table's wild-type CDR3 AGPMKTSYDKVI ; criterion: enrichment no lower than 0.9. Met?
Result block: rule met
